Measured IC50 of individual entries
# Assayed System: LBD of glucocorticoid receptor (GR) fused to DBD of GAL4 (Homo sapiens)
# Sequence (P04150 524-758 limits assumed): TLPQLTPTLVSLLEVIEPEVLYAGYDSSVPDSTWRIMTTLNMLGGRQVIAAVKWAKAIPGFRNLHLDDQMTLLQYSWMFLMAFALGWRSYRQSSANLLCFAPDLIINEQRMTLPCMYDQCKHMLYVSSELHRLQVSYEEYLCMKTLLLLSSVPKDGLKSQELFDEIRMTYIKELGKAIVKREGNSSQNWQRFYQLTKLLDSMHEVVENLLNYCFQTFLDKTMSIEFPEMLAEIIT
# Assay Name: LBD-expressing reporter assay (GeneBLAzer), GR LBD
# Format: cell-based
# Condition Notes: inhibition of maximal activity attained with agonist; read-out: Steroid Receptor LBD IC50 (μM) GR
Measurement Label: IC50

[
  {
    "Molecule": "CC(C)(c1ccc(OCc2coc(NS(C)(=O)=O)n2)cc1)c1cc(Cl)c(OCCCl)c(Cl)c1 [Compound A38]",
    "Result": "> 10 µM"
  },
  {
    "Molecule": "CC(C)(c1ccc(OCc2ncc(S(C)(=O)=O)s2)cc1)c1cc(Cl)c(OCCCl)c(C#N)c1 [Compound A93]",
    "Result": "> 10 µM"
  },
  {
    "Molecule": "CC(C)(c1ccc(OCc2ccnc(NS(C)(=O)=O)n2)cc1)c1cc(Cl)c(OCCCl)c(C#N)c1 [Compound A109]",
    "Result": "> 10 µM"
  },
  {
    "Molecule": "CC(C)(c1ccc(OC[C@H](O)CNS(C)(=O)=O)cc1)c1cc(Cl)c(OC[C@H](O)CCl)c(Cl)c1 [X, reference compound]",
    "Result": "> 10 µM"
  }
]
